# System: K24384-001-R-PDC complex spheroid growth
# test_name: Anticancer human tumor K24384-001-R-PDC patient-derived pancreatic adenocarcinoma cell line growth inhibition [AhR]
# stated_conditions: second compound 3.16 µM; first compound 0.0316 µM; hits give low values
// assign t if viability, T/C falls strictly below 80%, else f (ties count as f)

q: # check: viability, T/C < 80% for Cn1ncnc1C1c2n[nH]c(=O)c3cc(F)cc(c23)NC1c1ccc(F)cc1 (configuration not stated) + Cc1ccccc1N=Nc1ccc(NC(=O)c2ccnn2C)c(C)c1
a: t

q: # check: viability, T/C < 80% for CC(C)c1c(-c2ccccc2)nc2c(C#N)c[nH]n2c1=O + CC(CO)NC(=O)c1cc(-c2ccc(Cl)cc2)nn(-c2cnn(C)c2)c1=O
a: t

q: # check: viability, T/C < 80% for Cn1ncnc1C1c2n[nH]c(=O)c3cc(F)cc(c23)NC1c1ccc(F)cc1 (configuration not stated) + CC(CO)NC(=O)c1cc(-c2ccc(Cl)cc2)nn(-c2cnn(C)c2)c1=O
a: t

q: # check: viability, T/C < 80% for Nc1ncn(C2CC(O)C(CO)O2)c(=O)n1 (configuration not stated) + Cc1ccccc1N=Nc1ccc(NC(=O)c2ccnn2C)c(C)c1
a: f

q: # check: viability, T/C < 80% for Nc1ccccc1NC(=O)c1ccc(CNC(=O)OCc2cccnc2)cc1 + CC(CO)NC(=O)c1cc(-c2ccc(Cl)cc2)nn(-c2cnn(C)c2)c1=O
a: f

q: # check: viability, T/C < 80% for Nc1ccccc1NC(=O)c1ccc(CNC(=O)OCc2cccnc2)cc1 + Cc1cncc(-c2nc(NCCc3c[nH]c4ccccc34)c3ncn(C(C)C)c3n2)c1
a: t

q: # check: viability, T/C < 80% for O=C(C=Cc1cccc(S(=O)(=O)Nc2ccccc2)c1)NO + Cc1ccccc1N=Nc1ccc(NC(=O)c2ccnn2C)c(C)c1
a: f

* * *

Could you please report measured viability, T/C for the items listed next?
# Test system: K24384-001-R-PDC complex spheroid growth
# test_name: Anticancer human tumor K24384-001-R-PDC cell line growth inhibition [AhR];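 note: percent of DMSO vehicle-treated spheroid viability set as 100%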
# stated_conditions: second compound 0.316 µM; first compound 10 µM; hits give low values
Provide only the numeric value, understood in %.

q: Name the recorded viability, T/C of the compound listed here: COc1cc(C2c3cc4c(cc3C(OC3OC5COC(C)OC5C(O)C3O)C3COC(=O)C23)OCO4)cc(OC)c1O (configuration not stated) + Cc1ccccc1N=Nc1ccc(NC(=O)c2ccnn2C)c(C)c1
a: 38.7

q: Name the recorded viability, T/C of the compound listed here: CC1(C)CCC(CN2CCN(c3ccc(C(=O)NS(=O)(=O)c4ccc(NCC5CCOCC5)c([N+](=O)[O-])c4)c(Oc4cnc5[nH]ccc5c4)c3)CC2)=C(c2ccc(Cl)cc2)C1 + CC(CO)NC(=O)c1cc(-c2ccc(Cl)cc2)nn(-c2cnn(C)c2)c1=O
a: 49.9

q: Name the recorded viability, T/C of the compound listed here: O=C(c1cc(Cc2n[nH]c(=O)c3ccccc23)ccc1F)N1CCN(C(=O)C2CC2)CC1 + Cc1cncc(-c2nc(NCCc3c[nH]c4ccccc34)c3ncn(C(C)C)c3n2)c1
a: 90.5

q: Name the recorded viability, T/C of the compound listed here: COc1cccc2c1C(=O)c1c(O)c3c(c(O)c1C2=O)CC(O)(C(=O)CO)CC3OC1CC(N)C(O)C(C)O1 (configuration not stated) + CC(CO)NC(=O)c1cc(-c2ccc(Cl)cc2)nn(-c2cnn(C)c2)c1=O
a: 8.52

q: Name the recorded viability, T/C of the compound listed here: CC(C)c1c(-c2ccccc2)nc2c(C#N)c[nH]n2c1=O + Cc1ccccc1N=Nc1ccc(NC(=O)c2ccnn2C)c(C)c1
a: 89.7

q: Name the recorded viability, T/C of the compound listed here: CC(C)c1c(-c2ccccc2)nc2c(C#N)c[nH]n2c1=O + CC(CO)NC(=O)c1cc(-c2ccc(Cl)cc2)nn(-c2cnn(C)c2)c1=O
a: 78.3

q: Name the recorded viability, T/C of the compound listed here: COc1cccc2c1C(=O)c1c(O)c3c(c(O)c1C2=O)CC(O)(C(=O)CO)CC3OC1CC(N)C(O)C(C)O1 (configuration not stated) + Cc1ccccc1N=Nc1ccc(NC(=O)c2ccnn2C)c(C)c1
a: 8.04

* * *

Could you please report measured viability, T/C for the items listed next?
# System: K24384-001-R-PDC complex spheroid growth
# test_name: Anticancer human tumor K24384-001-R-PDC cell line growth inhibition [AhR];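 note: percent of DMSO vehicle-treated spheroid viability set as 100%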
# stated_conditions: second compound 3.16 µM; first compound 1 µM; hits give low values
Provide only the numeric value, understood in %.

q: GET viability, T/C | system: K24384-001-R-PDC complex spheroid growth | item: CC1COCCN1c1cc(-c2ccnn2C)c2ccnc(-c3ccn[nH]3)c2n1 (stereo unspecified) + CC(CO)NC(=O)c1cc(-c2ccc(Cl)cc2)nn(-c2cnn(C)c2)c1=O
a: 25.2

q: GET viability, T/C | system: K24384-001-R-PDC complex spheroid growth | item: NS(=O)(=O)OCC1CC(n2ccc3c(NC4CCc5ccccc54)ncnc32)CC1O (stereo unspecified) + CC(CO)NC(=O)c1cc(-c2ccc(Cl)cc2)nn(-c2cnn(C)c2)c1=O
a: 38.8

q: GET viability, T/C | system: K24384-001-R-PDC complex spheroid growth | item: CC1COCCN1c1cc(C2(S(C)(=N)=O)CC2)nc(-c2ccnc3[nH]ccc23)n1 (stereo unspecified) + Cc1cncc(-c2nc(NCCc3c[nH]c4ccccc34)c3ncn(C(C)C)c3n2)c1
a: 52

q: GET viability, T/C | system: K24384-001-R-PDC complex spheroid growth | item: COc1cccc2c1C(=O)c1c(O)c3c(c(O)c1C2=O)CC(O)(C(=O)CO)CC3OC1CC(N)C(O)C(C)O1 (stereo unspecified) + Cc1ccccc1N=Nc1ccc(NC(=O)c2ccnn2C)c(C)c1
a: 2.98

q: GET viability, T/C | system: K24384-001-R-PDC complex spheroid growth | item: CC1(C)CCC(CN2CCN(c3ccc(C(=O)NS(=O)(=O)c4ccc(NCC5CCOCC5)c([N+](=O)[O-])c4)c(Oc4cnc5[nH]ccc5c4)c3)CC2)=C(c2ccc(Cl)cc2)C1 + Cc1ccccc1N=Nc1ccc(NC(=O)c2ccnn2C)c(C)c1
a: 112

q: GET viability, T/C | system: K24384-001-R-PDC complex spheroid growth | item: COc1cc(Nc2ncc3c(n2)-c2ccc(Cl)cc2C(c2c(F)cccc2OC)=NC3)ccc1C(=O)O + Cc1ccccc1N=Nc1ccc(NC(=O)c2ccnn2C)c(C)c1
a: 49.2

q: GET viability, T/C | system: K24384-001-R-PDC complex spheroid growth | item: COc1cccc2c1C(=O)c1c(O)c3c(c(O)c1C2=O)CC(O)(C(=O)CO)CC3OC1CC(N)C(O)C(C)O1 (stereo unspecified) + Cc1cncc(-c2nc(NCCc3c[nH]c4ccccc34)c3ncn(C(C)C)c3n2)c1
a: 2.01

q: GET viability, T/C | system: K24384-001-R-PDC complex spheroid growth | item: COc1cc(C2c3cc4c(cc3C(OC3OC5COC(C)OC5C(O)C3O)C3COC(=O)C23)OCO4)cc(OC)c1O (stereo unspecified) + CC(CO)NC(=O)c1cc(-c2ccc(Cl)cc2)nn(-c2cnn(C)c2)c1=O
a: 41.2

q: GET viability, T/C | system: K24384-001-R-PDC complex spheroid growth | item: CC1COCCN1c1cc(C2(S(C)(=N)=O)CC2)nc(-c2ccnc3[nH]ccc23)n1 (stereo unspecified) + CC(CO)NC(=O)c1cc(-c2ccc(Cl)cc2)nn(-c2cnn(C)c2)c1=O
a: 96.4

q: GET viability, T/C | system: K24384-001-R-PDC complex spheroid growth | item: CC1(C)CCC(CN2CCN(c3ccc(C(=O)NS(=O)(=O)c4ccc(NCC5CCOCC5)c([N+](=O)[O-])c4)c(Oc4cnc5[nH]ccc5c4)c3)CC2)=C(c2ccc(Cl)cc2)C1 + Cc1cncc(-c2nc(NCCc3c[nH]c4ccccc34)c3ncn(C(C)C)c3n2)c1
a: 119

q: GET viability, T/C | system: K24384-001-R-PDC complex spheroid growth | item: O=C(C=Cc1cccc(S(=O)(=O)Nc2ccccc2)c1)NO + Cc1cncc(-c2nc(NCCc3c[nH]c4ccccc34)c3ncn(C(C)C)c3n2)c1
a: 75.2

* * *

Could you please report measured viability, T/C for the items listed next?
# Tested on: K24384-001-R-PDC complex spheroid growth
# test_name: Anticancer human tumor K24384-001-R-PDC cell line growth inhibition [AhR];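 note: percent of DMSO vehicle-treated spheroid viability set as 100%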
# stated_conditions: second compound 3.16 µM; first compound 0.3 µM; hits give low values
# Excerpt: Multicellular complex tumor spheroid response to aryl hydrocarbon receptor antagonists in combination with a variety of drugs and investigational agents in selected tumor cell lines […] Compounds. […] If the clinical Cmax for an agent had not been determined, the highest concentration tested was 10 microM (Table 1). […]
Provide only the numeric value, understood in %.

q: Name the recorded viability, T/C of the compound listed here: CCN(c1cc(-c2ccc(CN3CCOCC3)cc2)cc(C(=O)NCc2c(C)cc(C)[nH]c2=O)c1C)C1CCOCC1 + CC(CO)NC(=O)c1cc(-c2ccc(Cl)cc2)nn(-c2cnn(C)c2)c1=O
a: 119

q: Name the recorded viability, T/C of the compound listed here: O=C(C=Cn1cnc(-c2cc(C(F)(F)F)cc(C(F)(F)F)c2)n1)NNc1cnccn1 + Cc1ccccc1N=Nc1ccc(NC(=O)c2ccnn2C)c(C)c1
a: 34

q: Name the recorded viability, T/C of the compound listed here: CC(C)CC(NC(=O)C(Cc1ccccc1)NC(=O)c1cnccn1)B(O)O (stereo unspecified) + Cc1ccccc1N=Nc1ccc(NC(=O)c2ccnn2C)c(C)c1
a: 0.48

q: Name the recorded viability, T/C of the compound listed here: CCN(c1cc(-c2ccc(CN3CCOCC3)cc2)cc(C(=O)NCc2c(C)cc(C)[nH]c2=O)c1C)C1CCOCC1 + Cc1ccccc1N=Nc1ccc(NC(=O)c2ccnn2C)c(C)c1
a: 107

q: Name the recorded viability, T/C of the compound listed here: Nc1ncn(C2CC(O)C(CO)S2)c(=O)n1 (stereo unspecified) + Cc1ccccc1N=Nc1ccc(NC(=O)c2ccnn2C)c(C)c1
a: 46.9

q: Name the recorded viability, T/C of the compound listed here: O=C(C=Cn1cnc(-c2cc(C(F)(F)F)cc(C(F)(F)F)c2)n1)NNc1cnccn1 + Cc1cncc(-c2nc(NCCc3c[nH]c4ccccc34)c3ncn(C(C)C)c3n2)c1
a: 35.1
